Listed molecules paired with reported pIC50
# Assay System: Human recombinant FAP (Homo sapiens)
# Sequence (Q12884 whole entry): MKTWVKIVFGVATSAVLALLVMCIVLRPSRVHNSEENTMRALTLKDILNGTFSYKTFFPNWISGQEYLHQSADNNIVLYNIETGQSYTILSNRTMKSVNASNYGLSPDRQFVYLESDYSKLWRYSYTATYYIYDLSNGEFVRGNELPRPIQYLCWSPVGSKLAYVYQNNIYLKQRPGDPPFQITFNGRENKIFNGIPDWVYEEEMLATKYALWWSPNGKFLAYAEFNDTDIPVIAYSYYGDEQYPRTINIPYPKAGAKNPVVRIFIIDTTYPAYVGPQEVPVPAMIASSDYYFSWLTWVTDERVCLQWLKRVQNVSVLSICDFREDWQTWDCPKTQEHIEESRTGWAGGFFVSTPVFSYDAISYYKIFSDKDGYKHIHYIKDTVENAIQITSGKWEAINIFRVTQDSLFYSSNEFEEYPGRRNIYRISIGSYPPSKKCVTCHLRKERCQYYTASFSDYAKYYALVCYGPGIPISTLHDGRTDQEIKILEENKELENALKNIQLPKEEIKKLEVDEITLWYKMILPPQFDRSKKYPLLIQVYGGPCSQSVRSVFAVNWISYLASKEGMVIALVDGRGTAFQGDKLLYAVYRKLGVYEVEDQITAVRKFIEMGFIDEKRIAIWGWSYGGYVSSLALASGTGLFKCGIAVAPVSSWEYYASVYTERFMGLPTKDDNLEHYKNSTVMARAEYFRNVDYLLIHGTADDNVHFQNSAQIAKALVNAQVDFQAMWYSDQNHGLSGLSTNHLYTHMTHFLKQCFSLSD
# Experiment Summary: FRET-based FAP protease activity assay
# Assay type: biochemical
# Parameters: purchased R&D systems 3715-SE
# Details: pIC50 Category (activity), Recombinant human FAP
pIC50: −log10 of the molar value. Numbered stars: 1 amine (or outer) side, 2 acyl side, 3 side chain; on linkers, the order of the positions; unused ones are H or OH. Bridge positions count the residues as written; N and C are the ends. Square brackets hold non-standard residues; d marks the D form. Peptide text beside a SMILES is read from it. * marks the point of attachment. ξ: configuration not given here. X7 = O=C(CCP(=O)(O)CN1CCN(CP(=O)(O)CO)CCN(CP(=O)(O)CO)CC1)NCCSCc1cc(C[*:1])cc(C[*:2])c1; X6 = NCCNCC(CNCCN)C(=O)NCCOCCOCCOCCOCCOCCOCCC(=O)NCCCOCCOCCOCCCN*; Pyridine(3,5-bisCH2) = c1ncc(C[*:2])cc1C[*:1]; mXylylene = c1cc(C[*:1])cc(C[*:2])c1; PEG6 = NCCOCCOCCOCCOCCOCCOCCC(=O)O; Suc = O=C(CCC(=O)[*:2])[*:1]; Nle = CCCC[C@H](N)C(=O)O; X2 = NCCNCC(CNCCN)C(=O)*; CO = O=C([*:1])[*:2]; ξC = NC(CS)C(=O)O; βAla = NCCC(=O)O; NHBu = CCCCN*
Measured Parameter: pIC50

[[record]]
molecule = "CCCC[C@H](NC(=O)CCC(=O)NCCCOCCOCCOCCCNC(=O)CCC(C(=O)O)N1CCN(CC(=O)O)CCN(CC(=O)O)CC1)C(=O)N[C@H]1CSCc2cccc(c2)CSCC(C(=O)O)NC(=O)[C@H](Cc2ccccc2)NC(=O)[C@H](CCC(N)=O)NC(=O)[C@H]([C@@H](C)O)NC(=O)[C@@H]2CCCN2C(=O)[C@@H]2CCCN2C1=O (some centres unmarked) [3BP-4714]"
observed = "7.10 to 8.00"

[[record]]
molecule = "CCCC[C@H](NC(=O)CCOCCOCCOCCOCCOCCOCCNC(=O)C(CNCCN)CNCCN)C(=O)N[C@H]1CSCc2cncc(c2)CSCC(C(=O)O)NC(=O)[C@H](Cc2ccccc2)NC(=O)[C@H](CCC(=O)O)NC(=O)[C@H]([C@@H](C)O)NC(=O)[C@@H]2CCCN2C(=O)[C@@H]2CCCN2C1=O (some centres unmarked) [3BP-4773] ({X2-PEG6}-[Nle]CPPTEF[ξC]-OH; linker 2-8 via Pyridine(3,5-bisCH2))"
observed = "7.10 to 8.00"

[[record]]
molecule = "CCCCCC(=O)N[C@H]1CSCc2cc(CSCCNC(=O)CN3CCN(CC(N)=O)CCN(CC(N)=O)CCN(CC(N)=O)CC3)cc(c2)CSCC(C(=O)O)NC(=O)[C@H](Cc2ccccc2)NC(=O)[C@H](CCC(N)=O)NC(=O)[C@H]([C@@H](C)O)NC(=O)[C@@H]2CCCN2C(=O)[C@@H]2CCCN2C1=O (some centres unmarked)"
observed = "> 8.00"

[[record]]
molecule = "CCCCCC(=O)N[C@H]1CSCc2cc(CSCCNC(=O)COCCOCCNC(=O)CCC(C(=O)O)N3CCN(CC(=O)O)CCN(CC(=O)O)CC3)cc(c2)CSCC(C(N)=O)NC(=O)[C@H](Cc2ccccc2)NC(=O)[C@H](CCC(N)=O)NC(=O)[C@H]([C@@H](C)O)NC(=O)[C@@H]2CCCN2C(=O)[C@@H]2CCCN2C1=O (some centres unmarked)"
observed = "> 8.00"

[[record]]
molecule = "CCCCNC(=O)N[C@H]1CSCc2cc(CSCCNC(=O)CCP(=O)(O)CN3CCN(CP(=O)(O)CO)CCN(CP(=O)(O)CO)CC3)cc(c2)CSCC(C(=O)O)NC(=O)[C@H](Cc2ccccc2)NC(=O)[C@H](CCC(=O)O)NC(=O)[C@H]([C@@H](C)O)NC(=O)[C@@H]2CCCN2C(=O)[C@@H]2CCCN2C1=O (some centres unmarked) [3BP-4778] ({NHBu-CO}-CPPTEF[ξC]-OH; linker 1-7 via X7)"
observed = "> 8.00"

[[record]]
molecule = "CCCCNC(=O)N[C@H]1CSCc2cc(CSCCNC(=O)CCC(C(=O)O)N3CCN(CC(=O)O)CCN(CC(=O)O)CC3)cc(c2)CSCC(C(=O)O)NC(=O)[C@H](Cc2ccccc2)NC(=O)[C@H](CCC(N)=O)NC(=O)[C@H]([C@@H](C)O)NC(=O)[C@@H]2CCCN2C(=O)[C@@H]2CCCN2C1=O (some centres unmarked)"
observed = "> 8.00"

[[record]]
molecule = "CCCC[C@H](NC(=O)CCC(=O)NCCCOCCOCCOCCCNC(=O)CN1CCN(C(=O)C(CNCCN)CNCCN)CC1)C(=O)N[C@H]1CSCc2cccc(c2)CSCC(C(=O)O)NC(=O)[C@H](Cc2ccccc2)NC(=O)[C@H](CCC(N)=O)NC(=O)[C@H]([C@@H](C)O)NC(=O)[C@@H]2CCCN2C(=O)[C@@H]2CCCN2C1=O (some centres unmarked)"
observed = "7.10 to 8.00"

[[record]]
molecule = "CCCC[C@H](NC(=O)CCC(=O)NCCCOCCOCCOCCCNC(=O)CN1CCN(C(=O)C(CNCCN)CNCCN)CC1)C(=O)N[C@H]1CSCc2cncc(c2)CSCC(C(=O)O)NC(=O)[C@H](Cc2ccccc2)NC(=O)[C@H](CCC(N)=O)NC(=O)[C@H]([C@@H](C)O)NC(=O)[C@@H]2CCCN2C(=O)[C@@H]2CCCN2C1=O (some centres unmarked)"
observed = "7.10 to 8.00"

[[record]]
molecule = "CCCC[C@H](NC(=O)CCC(=O)NCCCOCCOCCOCCCNC(=O)CCC(C(=O)O)N1CCN(CC(=O)O)CCN(CC(=O)O)CC1)C(=O)N[C@H]1CSCc2cccc(c2)CSCC(C(=O)O)NC(=O)[C@H](Cc2ccccc2)NC(=O)[C@H](CCC(N)=O)NC(=O)[C@H]([C@@H](C)O)NC(=O)[C@@H]2CCCN2C(=O)[C@@H]2CCCN2C1=O (some centres unmarked) [3BP-4713]"
observed = "7.10 to 8.00"

[[record]]
molecule = "CCCC[C@H](NC(=O)CCC(=O)NCCCOCCOCCOCCCNC(=O)CCOCCOCCOCCOCCOCCOCCNC(=O)C(CNCCN)CNCCN)C(=O)N[C@H]1CSCc2cccc(c2)CSC[C@@H](C(=O)O)NC(=O)[C@H](Cc2ccccc2)NC(=O)[C@H](CCC(=O)O)NC(=O)[C@H]([C@@H](C)O)NC(=O)[C@@H]2CCCN2C(=O)[C@@H]2CCCN2C1=O [3BP-4780] ({X6-Suc}-[Nle]CPPTEFC-OH; linker 2-8 via mXylylene)"
observed = "> 8.00"

[[record]]
molecule = "CCCC[C@H](NC(=O)CCNC(=O)CCOCCOCCOCCOCCOCCOCCNC(=O)C(CNCCN)CNCCN)C(=O)N[C@H]1CSCc2cccc(c2)CSC[C@@H](C(=O)O)NC(=O)[C@H](Cc2ccccc2)NC(=O)[C@H](CCC(=O)O)NC(=O)[C@H]([C@@H](C)O)NC(=O)[C@@H]2CCCN2C(=O)[C@@H]2CCCN2C1=O [3BP-4779, N4Ac-PEG6-Bal-Nle-[C(3MeBn)-PPTEFC]-OH] ({X2-PEG6-βAla}-[Nle]CPPTEFC-OH; linker 2-8 via mXylylene)"
observed = "< 6.00"


###

# Experiment Summary: Radiochemical purity by HPLC of ^99mTc-labeled compounds
# Format: physicochemical
# Details: 99Tc-labeled compounds
Numbered stars: 1 amine (or outer) side, 2 acyl side, 3 side chain; on linkers, the order of the positions; unused ones are H or OH. Bridge positions count the residues as written; N and C are the ends. Square brackets hold non-standard residues; d marks the D form. Peptide text beside a SMILES is read from it. * marks the point of attachment. ξ: configuration not given here. X1 = NCCNCC(CNCCN)C(=O)N1CCN(CC(=O)NCCCOCCOCCOCCCN*)CC1; Pyridine(3,5-bisCH2) = c1ncc(C[*:2])cc1C[*:1]; mXylylene = c1cc(C[*:1])cc(C[*:2])c1; Suc = O=C(CCC(=O)[*:2])[*:1]; Nle = CCCC[C@H](N)C(=O)O; ξC = NC(CS)C(=O)O; βAla = NCCC(=O)O
Listed compounds paired with reported HPLC Area % at end of synthesis
Measured Parameter: HPLC Area % at end of synthesis (%)

[[record]]
compound = "CCCC[C@H](NC(=O)CCC(=O)NCCCOCCOCCOCCCNC(=O)CN1CCN(C(=O)C(CNCCN)CNCCN)CC1)C(=O)N[C@H]1CSCc2cncc(c2)CSCC(C(=O)O)NC(=O)[C@H](Cc2ccccc2)NC(=O)[C@H](CCC(=O)O)NC(=O)[C@H]([C@@H](C)O)NC(=O)[C@@H]2CCCN2C(=O)[C@@H]2CCCN2C1=O (stereo partly shown) [3BP-4775] ({X1-Suc}-[Nle]CPPTEF[ξC]-OH; linker 2-8 via Pyridine(3,5-bisCH2))"
measured_parameter = "HPLC Area % at end of synthesis"
unit_descriptor = "%"
observed = 86.4

[[record]]
compound = "CCCC[C@H](NC(=O)CCC(=O)NCCCOCCOCCOCCCNC(=O)CN1CCN(C(=O)C(CNCCN)CNCCN)CC1)C(=O)N[C@H]1CSCc2cccc(c2)CSC[C@@H](C(=O)NCCC(=O)O)NC(=O)[C@H](Cc2ccccc2)NC(=O)[C@H](CCC(=O)O)NC(=O)[C@H]([C@@H](C)O)NC(=O)[C@@H]2CCCN2C(=O)[C@@H]2CCCN2C1=O [3BP-4784] ({X1-Suc}-[Nle]CPPTEFC[βAla]-OH; linker 2-8 via mXylylene)"
measured_parameter = "HPLC Area % at end of synthesis"
unit_descriptor = "%"
observed = 96.6

[[record]]
compound = "CCCC[C@H](NC(=O)CCC(=O)NCCCOCCOCCOCCCNC(=O)CN1CCN(C(=O)C(CNCCN)CNCCN)CC1)C(=O)N[C@H]1CSCc2cncc(c2)CSCC(C(=O)O)NC(=O)[C@H](Cc2ccccc2)NC(=O)[C@H](CCC(N)=O)NC(=O)[C@H]([C@@H](C)O)NC(=O)[C@@H]2CCCN2C(=O)[C@@H]2CCCN2C1=O (stereo partly shown) [3BP-4774]"
measured_parameter = "HPLC Area % at end of synthesis"
unit_descriptor = "%"
observed = 88.8

[[record]]
compound = "CCCC[C@H](NC(=O)CCC(=O)NCCCOCCOCCOCCCNC(=O)CCOCCOCCOCCOCCOCCOCCNC(=O)C(CNCCN)CNCCN)C(=O)N[C@H]1CSCc2cccc(c2)CSCC(C(=O)O)NC(=O)[C@H](Cc2ccccc2)NC(=O)[C@H](CCC(N)=O)NC(=O)[C@H]([C@@H](C)O)NC(=O)[C@@H]2CCCN2C(=O)[C@@H]2CCCN2C1=O (stereo partly shown) [3BP-4552]"
measured_parameter = "HPLC Area % at end of synthesis"
unit_descriptor = "%"
observed = 88.3

